- Tested on: MDA-MB-231
- protocol-details: normalised response (% of control), CellTiter-Glo; higher = more viable cells (100 = DMSO, 0 = benzethonium chloride kill control)
- applied-conditions: incubation time: 72 h
Provide the reported normalised response of each item.
Numbers only, in %.

>  <compound>
CN(C)C[C@@H]1CCn2cc(c3ccccc32)C2=C(C(=O)NC2=O)c2cn(c3ccccc23)CCO1 [Ruboxistaurin] (10 nM)

>  <quantitative-result>
94

$$$$
>  <compound>
Cn1cncc1[C@@](N)(c1ccc(Cl)cc1)c1ccc2c(c1)c(-c1cccc(Cl)c1)cc(=O)n2C [Tipifarnib] (1 nM)

>  <quantitative-result>
99.5

$$$$
>  <compound>
CN1CCN(CCOc2cc(OC3CCOCC3)c3c(Nc4c(Cl)ccc5c4OCO5)ncnc3c2)CC1 [Saracatinib] (1 nM)

>  <quantitative-result>
94.6

$$$$
>  <compound>
Cn1cncc1[C@@](N)(c1ccc(Cl)cc1)c1ccc2c(c1)c(-c1cccc(Cl)c1)cc(=O)n2C [Tipifarnib] (10 nM)

>  <quantitative-result>
98.6

$$$$
>  <compound>
O=C(O)CCCc1ccc(N(CCCl)CCCl)cc1 [Chlorambucil] (1000 nM)

>  <quantitative-result>
99.8

$$$$

Hey, can you go through the list below and give me normalised response for every item?
1. COc1ccccc1S(=O)(=O)Nc1ccc2c(c1)CN(C)C(=O)N2 [PFI-1] (1 nM)
2. Nc1ncnc2c1c(COc1cccc(Cl)c1)nn2C1CCOCC1 (10 nM)
3. CN1CCN(CCOc2cc(OC3CCOCC3)c3c(Nc4c(Cl)ccc5c4OCO5)ncnc3c2)CC1 [Saracatinib] (1000 nM)
4. C/C(=C\c1csc(C)n1)[C@@H]1C[C@@H]2O[C@]2(C)CCC[C@H](C)[C@H](O)[C@@H](C)C(=O)C(C)(C)[C@@H](O)CC(=O)O1 [Patupilone] (1 nM)
5. C[C@]12CC[C@H](O)CC1=CC[C@@H]1[C@@H]2CC[C@]2(C)C(c3cccnc3)=CC[C@@H]12 [Abiraterone] (0.5 nM)
6. CNNCc1ccc(C(=O)NC(C)C)cc1 [Procarbazine] (10 nM)
7. NS(=O)(=O)OC[C@@H]1C[C@@H](n2ccc3c(N[C@H]4CCc5ccccc54)ncnc32)C[C@@H]1O [Pevonedistat] (1000 nM)
8. O=C1NC(=O)[C@@H](c2cn3c4c(cccc24)CCC3)[C@@H]1c1c[nH]c2ccccc12 [Tivantinib] (0.1 nM)

[103, 107, 64.6, 107, 105, 106, 71, 97.8]

# return normalised response for each item in the list
1. CC(C)c1c(C(=O)Nc2ccccc2)c(-c2ccccc2)c(-c2ccc(F)cc2)n1CC[C@@H](O)C[C@@H](O)CC(=O)O [Atorvastatin] (1 nM)
2. CC(C)c1c(C(=O)Nc2ccccc2)c(-c2ccccc2)c(-c2ccc(F)cc2)n1CC[C@@H](O)C[C@@H](O)CC(=O)O [Atorvastatin] (10 nM)
3. O=C1NC(=O)[C@@H](c2cn3c4c(cccc24)CCC3)[C@@H]1c1c[nH]c2ccccc12 [Tivantinib] (1 nM)
4. Cn1c(=O)n(-c2ccc(C(C)(C)C#N)cc2)c2c3cc(-c4cnc5ccccc5c4)ccc3ncc21 [Dactolisib] (0.1 nM)

1: 95.2; 2: 96.9; 3: 98.2; 4: 105

Which normalised response is listed for CO[C@H]1C[C@@H]2CC[C@@H](C)[C@@](O)(O2)C(=O)C(=O)N2CCCC[C@H]2C(=O)O[C@H]([C@H](C)C[C@@H]2CC[C@@H](OCCO)[C@H](OC)C2)CC(=O)[C@H](C)/C=C(\C)[C@@H](O)[C@@H](OC)C(=O)[C@H](C)C[C@H](C)/C=C/C=C/C=C/1C [Everolimus] (10 nM) ? 85.7

----------
- System: MDA-MB-453
- protocol-details: normalised response (% of control), CellTox Green; higher = less cell death (100 = DMSO, 0 = benzethonium chloride kill control)
- applied-conditions: incubation time: 72 h
experimental-endpoint: normalised response (%)
Numbers only, in %.

>  <molecule>
CN(C)CCN1C(=O)c2cccc3cc(N)cc(c23)C1=O [Amonafide] (10000 nM)

>  <tested-system>
MDA-MB-453

>  <quantitative-result>
112

$$$$
>  <molecule>
Nc1nc(OCc2cc(Br)cs2)c2[nH]cnc2n1 [Lomeguatrib] (1000 nM)

>  <tested-system>
MDA-MB-453

>  <quantitative-result>
103

$$$$
>  <molecule>
Nc1nc(OCc2cc(Br)cs2)c2[nH]cnc2n1 [Lomeguatrib] (100 nM)

>  <tested-system>
MDA-MB-453

>  <quantitative-result>
106

$$$$

Batch lookup, normalised response per entry.
1. CCCCCCCCc1ccc(CCC(N)(CO)CO)cc1 [Fingolimod] (1000 nM)
2. Cn1c(=O)n(-c2ccc(C(C)(C)C#N)cc2)c2c3cc(-c4cnc5ccccc5c4)ccc3ncc21 [Dactolisib] (10 nM)
3. COc1ccc(-c2ccc3c(N4CCOC[C@@H]4C)nc(N4CCOC[C@@H]4C)nc3n2)cc1CO [AZD8055] (100 nM)
4. CNNCc1ccc(C(=O)NC(C)C)cc1 [Procarbazine] (100 nM)
5. Cn1cncc1[C@@](N)(c1ccc(Cl)cc1)c1ccc2c(c1)c(-c1cccc(Cl)c1)cc(=O)n2C [Tipifarnib] (1000 nM)

1. 103
2. 108
3. 85.5
4. 106
5. 107

----------
Give normalised response for every item shown.
- System: HDQ-P1
- protocol-details: normalised response (% of control), CellTiter-Glo; higher = more viable cells (100 = DMSO, 0 = benzethonium chloride kill control)
- applied-conditions: incubation time: 72 h
One number for each entry, in %.

Lab note: each compound below needs its normalised response filled in.
1. CN(C)C[C@@H]1CCn2cc(c3ccccc32)C2=C(C(=O)NC2=O)c2cn(c3ccccc23)CCO1 [Ruboxistaurin] (1 nM)
2. Cn1c(=O)n(-c2ccc(C(C)(C)C#N)cc2)c2c3cc(-c4cnc5ccccc5c4)ccc3ncc21 [Dactolisib] (0.1 nM)
3. CC[C@]1(O)C[C@H]2CN(CCc3c([nH]c4ccccc34)[C@@](C(=O)OC)(c3cc4c(cc3OC)N(C=O)[C@H]3[C@@](O)(C(=O)OC)[C@H](OC(C)=O)[C@]5(CC)C=CCN6CC[C@]43[C@@H]65)C2)C1 [Vincristine] (100 nM)

1. 101
2. 102
3. 79.3

----------
- Tested on: MFM-223
- protocol-details: normalised response (% of control), CellTox Green; higher = less cell death (100 = DMSO, 0 = benzethonium chloride kill control)
- applied-conditions: incubation time: 72 h
Could you please report measured normalised response for the items listed next?
Numbers only, in %.

The following molecules have reported results that may help.
>  <molecule>
Cc1ccc(NC(=O)c2ccc(CN3CCN(C)CC3)cc2)cc1Nc1nccc(-c2cccnc2)n1 [Imatinib] (10000 nM)

>  <tested-system>
MFM-223

>  <quantitative-result>
99.9

$$$$
>  <molecule>
O=C(O)CCCc1ccc(N(CCCl)CCCl)cc1 [Chlorambucil] (1000 nM)

>  <tested-system>
MFM-223

>  <quantitative-result>
95.5

$$$$
>  <molecule>
CCCCCCCCc1ccc(CCC(N)(CO)CO)cc1 [Fingolimod] (1000 nM)

>  <tested-system>
MFM-223

>  <quantitative-result>
102

$$$$

For every item below, please supply its normalised response.
1. Cn1cncc1[C@@](N)(c1ccc(Cl)cc1)c1ccc2c(c1)c(-c1cccc(Cl)c1)cc(=O)n2C [Tipifarnib] (1000 nM)
2. Nc1ncnc2c1c(COc1cccc(Cl)c1)nn2C1CCOCC1 (10000 nM)
3. C[C@]12CC[C@H](O)CC1=CC[C@@H]1[C@@H]2CC[C@]2(C)C(c3cccnc3)=CC[C@@H]12 [Abiraterone] (500 nM)
4. COc1ccccc1S(=O)(=O)Nc1ccc2c(c1)CN(C)C(=O)N2 [PFI-1] (1000 nM)
5. Cc1ccc(NC(=O)c2ccc(CN3CCN(C)CC3)cc2)cc1Nc1nccc(-c2cccnc2)n1 [Imatinib] (100 nM)
6. Nc1nc(OCc2cc(Br)cs2)c2[nH]cnc2n1 [Lomeguatrib] (100 nM)

1: 101; 2: 98.8; 3: 104; 4: 87.8; 5: 101; 6: 103

----------
- Test system: MCF-10A
- protocol-details: normalised response (% of control), CellTiter-Glo; higher = more viable cells (100 = DMSO, 0 = benzethonium chloride kill control)
- applied-conditions: incubation time: 72 h
Could you please report measured normalised response for the items listed next?
Param answer (str): number followed by unit.

>  <compound>
CC(C)(C#N)c1cc(Cn2cncn2)cc(C(C)(C)C#N)c1 [Anastrozole] (10 nM)

>  <normalised response>
110%

$$$$
>  <compound>
Cc1ccc(NC(=O)c2ccc(CN3CCN(C)CC3)cc2)cc1Nc1nccc(-c2cccnc2)n1 [Imatinib] (10 nM)

>  <normalised response>
104%

$$$$
>  <compound>
CN(C)C[C@@H]1CCn2cc(c3ccccc32)C2=C(C(=O)NC2=O)c2cn(c3ccccc23)CCO1 [Ruboxistaurin] (1000 nM)

>  <normalised response>
86.1%

$$$$
>  <compound>
CO[C@H]1C[C@@H]2CC[C@@H](C)[C@@](O)(O2)C(=O)C(=O)N2CCCC[C@H]2C(=O)O[C@H]([C@H](C)C[C@@H]2CC[C@@H](OCCO)[C@H](OC)C2)CC(=O)[C@H](C)/C=C(\C)[C@@H](O)[C@@H](OC)C(=O)[C@H](C)C[C@H](C)/C=C/C=C/C=C/1C [Everolimus] (10 nM)

>  <normalised response>
79.2%

$$$$
>  <compound>
CCCCCCCCc1ccc(CCC(N)(CO)CO)cc1 [Fingolimod] (1000 nM)

>  <normalised response>
103%

$$$$
>  <compound>
C[C@]12CC[C@H](O)CC1=CC[C@@H]1[C@@H]2CC[C@]2(C)C(c3cccnc3)=CC[C@@H]12 [Abiraterone] (0.5 nM)

>  <normalised response>
102%

$$$$
>  <compound>
Cn1cncc1[C@@](N)(c1ccc(Cl)cc1)c1ccc2c(c1)c(-c1cccc(Cl)c1)cc(=O)n2C [Tipifarnib] (1000 nM)

>  <normalised response>
86.9%

$$$$
>  <compound>
C/C(=C\c1csc(C)n1)[C@@H]1C[C@@H]2O[C@]2(C)CCC[C@H](C)[C@H](O)[C@@H](C)C(=O)C(C)(C)[C@@H](O)CC(=O)O1 [Patupilone] (0.1 nM)

>  <normalised response>
102%

$$$$

Each compound below has a reported value. Please supply its normalised response.
1. C/C(=C\c1csc(C)n1)[C@@H]1C[C@@H]2O[C@]2(C)CCC[C@H](C)[C@H](O)[C@@H](C)C(=O)C(C)(C)[C@@H](O)CC(=O)O1 [Patupilone] (100 nM)
2. CNNCc1ccc(C(=O)NC(C)C)cc1 [Procarbazine] (1000 nM)
3. CC[C@]1(O)C[C@H]2CN(CCc3c([nH]c4ccccc34)[C@@](C(=O)OC)(c3cc4c(cc3OC)N(C=O)[C@H]3[C@@](O)(C(=O)OC)[C@H](OC(C)=O)[C@]5(CC)C=CCN6CC[C@]43[C@@H]65)C2)C1 [Vincristine] (0.1 nM)
4. c1ccc([C@H]2CN3CCSC3=N2)cc1 [Levamisole] (1 nM)

1: 61.4%; 2: 105%; 3: 105%; 4: 107%
